# Test system: Clone20 osteoblast Shn3 3'UTR firefly luciferase, 24 h
# assay: Shn3 3'UTR reporter inhibitors, dose response, cell-based, Clone20 osteoblasts, luminescence, dry powder, set 2 (AID 743417)
Results filed as inconclusive are left out.
Would you mind telling me the reported AC50 of each entry?

*Q* Check the records and state AC50 for COc1cc(CC(=O)Nc2nc(-c3ccc(F)c(F)c3)cs2)cc(OC)c1OC
*A* 3.92 µM

*Q* State, in one line, measured AC50 of CCOC(=O)c1ccc(NC(=O)c2nc(S(=O)(=O)Cc3ccccc3)ncc2Cl)cc1
*A* 0.572 µM

*Q* Look up and state reported AC50 for CC(C)(C)C(=O)/C(=C/c1ccc(Cl)cc1)n1cncn1
*A* 3.75 µM

*Q* Supply AC50 value. Item: O=[N+]([O-])c1ccc2ncnc(N3CCN(Cc4ccc5c(c4)OCO5)CC3)c2c1
*A* 2.73 µM

*Q* # return recorded AC50 for input Cc1ccc(-n2ncc3c(N4CCN(c5ccc(F)cc5)CC4)ncnc32)c(C)c1
*A* 3.24 µM
